experiment: Pharmacokinetic study in beagles; format: in vivo; details: both, beagle, dog, plasma, po, 10 mg/kg
observable: AUC(0-inf) (µM·h)
Kindly provide the numeric value in µM·h only, without the unit symbol.

Quick check: AUC(0-inf) of COc1cc2nccc(Oc3ccc(NC(=S)NC4CC4)c(Cl)c3F)c2cc1C(N)=O ?
20.2

---

experiment: Pharmacokinetic study in rats; type: in vivo; details: both, Sprague-Dawley, rat, plasma, po, 15 mg/kg
observable: AUC(0-t) (µM·h)
Your answer is read as µM·h, so omit the unit and give the number.

GET /values?readout=AUC(0-t)&item= COc1cc2nccc(Oc3ccc(NC(=S)NC4CC4)c(Cl)c3F)c2cc1C(N)=O [WXFL-152]
74.6

---

experiment: Pharmacokinetic study in beagles; assay type: in vivo; conditions: both, beagle, dog, plasma, po, 30 mg/kg
observable: Tmax (min)
Provide the reading as a plain figure in min.

Tmax for COc1cc2nccc(Oc3ccc(NC(=S)NC4CC4)c(Cl)c3F)c2cc1C(N)=O ?
55

---

test: Pharmacokinetic study in beagles; assay type: in vivo; settings: both, beagle, dog, plasma, po, 100 mg/kg
observable: bioavailability (%)
Field: numeric (%). Do not append units.

Would you kindly share the measured bioavailability for COc1cc2nccc(Oc3ccc(NC(=S)NC4CC4)c(Cl)c3F)c2cc1C(N)=O ?
78

---

assay: Pharmacokinetic study in rats; type: in vivo; conditions: both, Sprague-Dawley, rat, plasma, po, 50 mg/kg
observable: half-life (h)
# unit: h | format: bare number

Sample COc1cc2nccc(Oc3ccc(NC(=S)NC4CC4)c(Cl)c3F)c2cc1C(N)=O — what was its half-life?
2

---

molecular target: CDK2 (Homo sapiens, UniProt P24941)
observable: IC50

What value of IC50 has been recorded for this entry: COc1cc2nccc(Oc3ccc(NC(=S)NC4CC4)c(Cl)c3F)c2cc1C(N)=O
> 10 µM

---

assay: Pharmacokinetic study in rats; assay type: in vivo; conditions: both, Sprague-Dawley, rat, plasma, po, 150 mg/kg
observable: Tmax (h)
Numeric answer only, unit h assumed.

Looking for the measured Tmax of COc1cc2nccc(Oc3ccc(NC(=S)NC4CC4)c(Cl)c3F)c2cc1C(N)=O [WXFL-152] , can you help?
1.58

---

experiment: Pharmacokinetic study in beagles; format: in vivo; conditions: both, beagle, dog, plasma, iv, 2 mg/kg
observable: half-life
The answer should read as a number with its unit following.

Data request, read-out half-life, for COc1cc2nccc(Oc3ccc(NC(=S)NC4CC4)c(Cl)c3F)c2cc1C(N)=O
4.91 h

---

assay: Pharmacokinetic study in rats; format: in vivo; conditions: both, Sprague-Dawley, rat, plasma, po, 50 mg/kg
observable: Cmax (µM)
Please state the figure in µM; there is no need to write the unit.

Can you share its Cmax? I mean this molecule: COc1cc2nccc(Oc3ccc(NC(=S)NC4CC4)c(Cl)c3F)c2cc1C(N)=O
32.3

---

target: UniProt P48729
Sequence (P48729 whole entry): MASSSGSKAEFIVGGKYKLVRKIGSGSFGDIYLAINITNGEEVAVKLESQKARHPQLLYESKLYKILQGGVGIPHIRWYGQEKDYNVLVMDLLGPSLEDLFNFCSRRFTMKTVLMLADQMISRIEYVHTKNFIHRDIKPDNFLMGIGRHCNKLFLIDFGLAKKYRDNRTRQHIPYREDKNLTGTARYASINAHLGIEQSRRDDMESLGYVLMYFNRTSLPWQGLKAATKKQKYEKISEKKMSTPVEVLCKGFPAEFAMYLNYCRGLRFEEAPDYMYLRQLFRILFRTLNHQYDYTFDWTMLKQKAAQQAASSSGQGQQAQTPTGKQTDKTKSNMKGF
pIC50: −log10 of the molar value.
observable: pIC50

Returns the measured pIC50 for the input molecule. Input: COc1cc2nccc(Oc3ccc(NC(=S)NC4CC4)c(Cl)c3F)c2cc1C(N)=O [WXFL-152]
< 5.00

---

experiment: Pharmacokinetic study in beagles; format: in vivo; settings: both, beagle, dog, plasma, po, 30 mg/kg/day
observable: AUC(0-inf) (µM·h)
Write it as a number; the unit µM·h goes unstated.

Using the record for COc1cc2nccc(Oc3ccc(NC(=S)NC4CC4)c(Cl)c3F)c2cc1C(N)=O [WXFL-152] , report its AUC(0-inf).
37.9

---

target: PKA (Homo sapiens)
pIC50: −log10 of the molar value.
observable: pIC50

Request: pIC50, test system PKA (Homo sapiens), entry COc1cc2nccc(Oc3ccc(NC(=S)NC4CC4)c(Cl)c3F)c2cc1C(N)=O
< 5.00

---

assay: Pharmacokinetic study in beagles; format: in vivo; conditions: both, beagle, dog, plasma, po, 30 mg/kg/day
observable: Cmax at 7 days (µM)
Please state the figure in µM; there is no need to write the unit.

For COc1cc2nccc(Oc3ccc(NC(=S)NC4CC4)c(Cl)c3F)c2cc1C(N)=O , what is its reported Cmax at 7 days?
6.97

---

target: UniProt:Q16539
Sequence (Q16539 whole entry): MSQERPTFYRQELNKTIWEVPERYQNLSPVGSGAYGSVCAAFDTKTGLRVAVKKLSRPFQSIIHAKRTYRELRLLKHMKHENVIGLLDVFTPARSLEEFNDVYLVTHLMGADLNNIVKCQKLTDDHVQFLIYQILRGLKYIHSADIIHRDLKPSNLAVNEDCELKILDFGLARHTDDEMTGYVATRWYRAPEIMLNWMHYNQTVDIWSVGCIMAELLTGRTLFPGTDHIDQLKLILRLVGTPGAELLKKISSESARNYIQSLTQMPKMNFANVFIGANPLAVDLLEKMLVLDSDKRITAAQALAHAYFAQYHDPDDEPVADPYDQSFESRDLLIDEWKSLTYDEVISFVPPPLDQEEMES
pIC50: −log10 of the molar value.
observable: pIC50

What value of pIC50 has been reported for the following compound? COc1cc2nccc(Oc3ccc(NC(=S)NC4CC4)c(Cl)c3F)c2cc1C(N)=O [WXFL-152]
< 5.48
